Molecular target: HsCDK1 (Homo sapiens)
Construct: purchased ProQinase
Sequence (P06493 whole entry): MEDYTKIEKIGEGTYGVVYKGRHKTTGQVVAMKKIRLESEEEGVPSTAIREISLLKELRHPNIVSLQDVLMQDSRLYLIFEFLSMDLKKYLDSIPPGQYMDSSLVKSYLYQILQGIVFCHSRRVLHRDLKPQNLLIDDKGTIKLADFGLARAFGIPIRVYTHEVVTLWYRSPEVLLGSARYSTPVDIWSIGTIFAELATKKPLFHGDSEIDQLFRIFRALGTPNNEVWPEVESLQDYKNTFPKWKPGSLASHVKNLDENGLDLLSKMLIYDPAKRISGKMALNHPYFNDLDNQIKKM
Sequence (P14635 whole entry partner): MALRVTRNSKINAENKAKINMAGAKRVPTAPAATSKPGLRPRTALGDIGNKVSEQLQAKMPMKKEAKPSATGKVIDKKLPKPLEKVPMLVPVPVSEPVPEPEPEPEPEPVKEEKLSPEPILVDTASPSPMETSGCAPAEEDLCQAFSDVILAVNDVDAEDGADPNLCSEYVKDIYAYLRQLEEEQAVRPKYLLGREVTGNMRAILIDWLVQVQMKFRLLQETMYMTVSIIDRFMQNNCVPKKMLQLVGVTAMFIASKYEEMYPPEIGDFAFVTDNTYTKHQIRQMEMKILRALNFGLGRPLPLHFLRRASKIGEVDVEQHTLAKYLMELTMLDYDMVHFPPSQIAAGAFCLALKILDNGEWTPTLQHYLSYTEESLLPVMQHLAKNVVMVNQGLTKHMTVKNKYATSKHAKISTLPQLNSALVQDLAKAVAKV
Assay: CDK1 kinase assay
Type: biochemical
Settings: SI = IC50 CDK1/IC50 Haspin
Field: SI CDK1/Haspin. Provide a value for each of the compounds that follow.

Find the recorded SI CDK1/Haspin belonging to CC[C@H](CO)Nc1ccc2ncc(-c3ccc4[nH]ncc4c3)n2n1 [Compound 12] and report it.
0.8

Find the recorded SI CDK1/Haspin belonging to CCOc1ccc2ncc(-c3ccc4[nH]ncc4c3)n2n1 [Compound 14] and report it.
11.5

Find the recorded SI CDK1/Haspin belonging to c1cc2[nH]ncc2cc1-c1cnc2ccc(OC[C@@H]3CNCCO3)nn12 [Compound 21] and report it.
392

Next compound, SI CDK1/Haspin to be filled in.
Find the recorded SI CDK1/Haspin belonging to c1cc2[nH]ncc2cc1-c1cnc2ccc(OC[C@H]3CNCCO3)nn12 [Compound 22] and report it.
239

====

Tested on: HCT116
Assay: Cell viability, monolayer (2D), MTS assay
Format: cell-based
Details: Homo sapiens, HCT-116, 48 h
Field: EC50. Provide a value for each of the molecules that follow.

Reference set, count: 2
Find the recorded EC50 belonging to c1cc2[nH]ncc2cc1-c1cnc2ccc(OC[C@H]3CNCCO3)nn12 and report it.
> 10 µM

Find the recorded EC50 belonging to CCCNc1ccc2ncc(-c3cccc4ccccc34)n2n1 and report it.
> 10 µM

Below are some molecules; for each one, tell me its EC50.
1. CC[C@H](CO)Nc1ccc2ncc(-c3ccc4[nH]ncc4c3)n2n1
2. CCOc1ccc2ncc(-c3ccc4[nH]ncc4c3)n2n1
3. CCCNc1ccc2ncc(-c3ccc4[nH]ncc4c3)n2n1 [Compound 5, reference compound]
4. c1cc2[nH]ncc2cc1-c1cnc2ccc(OC[C@@H]3CNCCO3)nn12

1: > 10 µM; 2: 1.7 µM; 3: 9 µM; 4: > 10 µM

====

Molecular target: Haspin (Homo sapiens)
Construct: aa470-798; made in house; host or cells: E. coli
Sequence (Q8TF76 470-798): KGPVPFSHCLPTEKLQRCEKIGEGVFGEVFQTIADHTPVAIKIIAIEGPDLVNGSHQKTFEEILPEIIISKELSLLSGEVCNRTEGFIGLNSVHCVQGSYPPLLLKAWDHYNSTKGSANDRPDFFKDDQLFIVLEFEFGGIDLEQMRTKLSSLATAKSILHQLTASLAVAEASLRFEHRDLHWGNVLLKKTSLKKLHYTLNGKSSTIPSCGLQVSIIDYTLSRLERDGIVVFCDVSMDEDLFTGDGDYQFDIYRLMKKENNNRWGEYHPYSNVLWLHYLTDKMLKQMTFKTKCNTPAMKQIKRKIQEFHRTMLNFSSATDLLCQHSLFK
Assay: ATP competition assay on Haspin kinase activity
Assay type: biochemical
Settings: 240 µM ATP; read-out: IC50 Haspin at 240 µM ATP
Measure Name: IC50 (nM)
Numbers only, in nM.

Find the recorded IC50 belonging to CC[C@H](CO)Nc1ccc2ncc(-c3ccc4[nH]ncc4c3)n2n1 and report it.
950

====

Field: melting point. Provide a value for each of the compounds that follow.

Find the recorded melting point belonging to CCCOc1ccc2ncc(-c3ccc4[nH]ncc4c3)n2n1 and report it.
198 to 200 °C

Find the recorded melting point belonging to CCOc1ccc2ncc(-c3ccc4[nH]ncc4c3)n2n1 and report it.
205 to 207 °C

Find the recorded melting point belonging to c1cc2[nH]ncc2cc1-c1cnc2ccc(N3CCCCC3)nn12 and report it.
231 to 233 °C

Find the recorded melting point belonging to c1cc2[nH]ncc2cc1-c1cnc2ccc(NC3CCCCC3)nn12 and report it.
240 to 242 °C

Next compound, melting point to be filled in.
Find the recorded melting point belonging to c1cc2[nH]ncc2cc1-c1cnc2ccc(NC3CCCC3)nn12 and report it.
195 to 197 °C

====

System: Haspin activity (H3T3ph) in U-2 OS cells
Assay: In-cell Haspin activity, H3T3ph immunofluorescence
Format: cell-based, human
Details: 0.5 µM, 24 h
Measure Name: H3T3ph signal remaining in prometaphase cells (% of ctrl)
Answer format: value, then unit.

Reference set, count: 4
Find the recorded H3T3ph signal remaining in prometaphase cells (% of ctrl) belonging to c1cc2[nH]ncc2cc1-c1cnc2ccc(OC[C@@H]3CNCCO3)nn12 and report it.
2.4%

Find the recorded H3T3ph signal remaining in prometaphase cells (% of ctrl) belonging to CC[C@H](CO)Nc1ccc2ncc(-c3ccc4[nH]ncc4c3)n2n1 and report it.
1.9%

Find the recorded H3T3ph signal remaining in prometaphase cells (% of ctrl) belonging to CCOc1ccc2ncc(-c3ccc4[nH]ncc4c3)n2n1 and report it.
11.9%

Find the recorded H3T3ph signal remaining in prometaphase cells (% of ctrl) belonging to CCCNc1ccc2ncc(-c3ccc4[nH]ncc4c3)n2n1 [Compound 5, reference compound] and report it.
2.5%

Next compound, H3T3ph signal remaining in prometaphase cells (% of ctrl) to be filled in.
Find the recorded H3T3ph signal remaining in prometaphase cells (% of ctrl) belonging to c1cc2[nH]ncc2cc1-c1cnc2ccc(OC[C@H]3CNCCO3)nn12 and report it.
10.7%
